Cmax listing for selected compounds.
- assay-method-text: Maximum Concentration of the compound.
- Format: ADME, organism-based
- assay-context: in vivo
quantity-kind: Cmax (ng/mL)

input-smiles: CC1(C)[C@H](C(=O)OCOC(=O)CC(=O)O)N2C(=O)C[C@H]2S1(=O)=O
unit: ng/mL
observed-value: 2000
//
input-smiles: CC1(C)[C@H](C(=O)OCOC(=O)CCCCC(=O)OCc2ccccc2)N2C(=O)C[C@H]2S1(=O)=O
unit: ng/mL
observed-value: 1600
//
input-smiles: CC1(C)[C@H](C(=O)OCOC(=O)CCCC(=O)O)N2C(=O)C[C@H]2S1(=O)=O
unit: ng/mL
observed-value: 8200
//
input-smiles: CC(C)(C)C(=O)OCOC(=O)[C@@H]1N2C(=O)C[C@H]2S(=O)(=O)C1(C)C
unit: ng/mL
observed-value: 6200
